- System: LU-1 human lung carcinoma cell line
- Measurement Description: Sulforhodamine
- Format: cell-based
- Experimental Parameters: read-out: Cytotoxicity LU-1 CC50; LU-1 human lung carcinoma, SRB
In this section we review reported CC50 values for a set of molecules.
Express it in µM; write the number only.

Molecular String: Oc1ccc2c(c1)[nH]c1ccccc12
CC50, µM: 218
--
Molecular String: O=Cc1cc2c(cc1O)[nH]c1ccc(OC(F)(F)F)cc12
CC50, µM: 152

Q: Provide CC50, recorded with LU-1 human lung carcinoma cell line, of COc1ccc2[nH]c3cc(O)c(C)cc3c2c1
Ans: 132

Q: Provide CC50, recorded with LU-1 human lung carcinoma cell line, of O=Cc1cc2c(cc1O)[nH]c1ccccc12
Ans: 213

Q: Provide CC50, recorded with LU-1 human lung carcinoma cell line, of O=Cc1cc2c(cc1O)[nH]c1ccc(C(F)(F)F)cc12
Ans: 75.2

Q: Provide CC50, recorded with LU-1 human lung carcinoma cell line, of CCn1c2ccccc2c2cc(C=O)ccc21
Ans: 112
